# system.under.test: cloned human δ receptors (HDELTA) (Homo sapiens, UniProt P41143)
# Construct: expressed in transfected cells; host or cells: human 293S cells (geneticin-selected), membranes
# Sequence (P41143 whole entry): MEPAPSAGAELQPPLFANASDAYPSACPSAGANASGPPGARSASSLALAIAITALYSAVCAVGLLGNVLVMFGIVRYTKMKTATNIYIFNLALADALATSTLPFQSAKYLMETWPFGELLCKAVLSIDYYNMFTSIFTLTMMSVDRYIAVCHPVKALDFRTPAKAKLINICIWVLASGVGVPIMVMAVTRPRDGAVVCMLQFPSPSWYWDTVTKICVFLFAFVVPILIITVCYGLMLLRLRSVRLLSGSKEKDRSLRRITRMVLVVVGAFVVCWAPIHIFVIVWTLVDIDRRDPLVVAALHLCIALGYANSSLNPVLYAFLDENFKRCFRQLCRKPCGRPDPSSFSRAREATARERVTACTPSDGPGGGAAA
# assay.details: Binding assay, membranes of 293S cells expressing cloned human δ receptor
# study.conditions: displacement of radioligand, human δ receptor membranes; read-out: HDELTA
Where a name gives a salt, the structure may show the parent alone.
metric: IC50 (nM)

compound | system.under.test | quantity.unit | numeric.readout
CCN(CC)C(=O)c1ccc(C(c2cccc3cccnc23)N2CCN(Cc3c[nH]cn3)CC2)cc1 (centres unmarked) [Example 18, Dihydrochloride] | cloned human δ receptors (HDELTA) (Homo sapiens, UniProt P41143) | nM | 1.54
CCN(CC)C(=O)c1ccc(C(c2cccc3cccnc23)N2CCN(Cc3nc[nH]n3)CC2)cc1.Cl.Cl (centres unmarked) [Example 19, Dihydrochloride] | cloned human δ receptors (HDELTA) (Homo sapiens, UniProt P41143) | nM | 18.8
